Provenance of the data: patent US5340818A

tested on: DNA synthesis in HL-60 cells; test: Inhibition of [3H-methyl]dThd incorporation into DNA of HL-60 cells; assay type: cell-based, human; details: Homo sapiens, HL-60, at 0.03 mg/mL; read-out: % Inhibition of Precursor Incorporation, DNA
# inhibition at 30 µg/mL annotations
Numeric answer only, unit % assumed.

                                   molecule       measuredparameter  quantitativereadout
0  COc1c(O)cc(O)c2c(=O)c3cccc(O)c3n(C)c12 [Compound 15, Citrusinine-II]  inhibition at 30 µg/mL                 88.5

Attention now turns to another entry.
INPUT: Look at this molecule and give its reported inhibition at 30 µg/mL. COc1cc(OC)c2c(=O)c3cccc(OC)c3n(C)c2c1OC [Compound 18, 1,3,4,5-Tetra-methoxy-N-methyl acridone]
OUTPUT: 91.5
